measuredOn: type II dehydroquinase from Mycobacterium tuberculosis (Mycobacterium tuberculosis, UniProt P9WPX7)
Sequence (P9WPX7 whole entry): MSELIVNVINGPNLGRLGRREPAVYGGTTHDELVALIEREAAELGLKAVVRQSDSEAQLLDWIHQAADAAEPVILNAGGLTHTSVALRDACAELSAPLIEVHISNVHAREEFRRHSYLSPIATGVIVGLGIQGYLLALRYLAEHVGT
experimentalProtocol: biochemical
measurementSetup: inhibition constants against Mycobacterium tuberculosis
measureName: Ki (nM)
Give a bare numeral; the unit nM is implied.

So what's the measured Ki for this one? COc1ccc(CC2C(=O)C(O)C(O)CC2(O)C(=O)O)cc1 (single isomer, unassigned)
25

Lookup O=C(O)[C@]1(O)C=C(OCc2cc3ccccc3s2)[C@@H](O)[C@H](O)C1
3.2

====

measuredOn: type II dehydroquinase from Helicobacter pylori (Helicobacter pylori)
Sequence (Q48255 whole entry): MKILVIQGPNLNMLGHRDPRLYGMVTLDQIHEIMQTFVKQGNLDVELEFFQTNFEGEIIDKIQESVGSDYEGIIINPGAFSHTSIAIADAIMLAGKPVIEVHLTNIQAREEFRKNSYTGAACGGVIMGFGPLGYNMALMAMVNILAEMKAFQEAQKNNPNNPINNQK
experimentalProtocol: Inhibition of type II dehydroquinase from Helicobacter pylori (Ki)
Format: biochemical
measurementSetup: pH = 7.0, 25° C., 50 mM Tris•HCl; read-out: Inhibition constants Ki, H. pylori
Could you please report measured Ki for the items listed next?
Give a bare numeral; the unit nM is implied.

Recorded Ki for C=CCC1=C(OCc2cc3ccccc3s2)[C@@H](O)[C@H](O)C[C@]1(O)C(=O)O [Ib-5] with type II dehydroquinase from Helicobacter pylori (Helicobacter pylori), please?
1100

Lookup O=C(O)[C@@]1(O)C[C@@H](O)[C@H](O)C(OCc2cccs2)=C1Cc1cc2ccccc2s1 [Ib-12]
46

Lookup C=CC[C@@H]1C(=O)[C@@H](O)[C@H](O)C[C@]1(O)C(=O)O [(2S)-Ia-1, (2S)-2-allyl-3-dehydroquinic acid]
21500

Lookup Cc1ccc2sc(COC3=C(Cc4cc5cc(C)ccc5s4)[C@@](O)(C(=O)O)C[C@@H](O)[C@@H]3O)cc2c1 [Ib-4]
70

Data provenance is patent US20110313032A1.
